# assay.method.text: Plasmodium falciparum growth inhibition, primary screen, strain 3D7, DAPI fluorescence, 100 nL (AID 1184);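 note: parasites grown inside human red blood cells in medium with human serum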
# experimental.conditions: P. falciparum 3D7 growth, 3 d, higher = more signal
Item-by-item account of z-score
Give only the figure.

Examples with answers:
molecule: CCc1cccc(NC(=O)O[C@H]2[C@H](OC(=O)Nc3ccc4c(c3)OCO4)[C@H](OC(=O)Nc3ccc4c(c3)OCO4)[C@@H](OC)O[C@@H]2CO)c1
z-score: -2.26

molecule: C=CC(CO)NC(=O)OCC1c2ccccc2-c2ccccc21 (centres undefined)
z-score: 1.42

molecule: COCCOC(=O)N1C(=O)[C@@]2(c3cc(C#CC4(O)CCCCCC4)ccc31)[C@H](c1ccc(OCCO)cc1)N1[C@H](c3ccccc3)[C@H](c3ccccc3)OC(=O)[C@H]1[C@@H]2C(N)=O
z-score: -2.02

Consider the record given below.
Find the recorded z-score belonging to "COc1ccccc1CN1C(=O)c2ccccc2[C@](Cc2ccccc2I)(C(=O)NCCCN(C)C)[C@@H]1c1ccc(CO)cc1" and report it. -2.36
